assayProtocol: RP, Thermo Scientific Hypersil GOLD aQ, 100 × 2.1 mm, 1.9 µm, 30 °C, 0.3 mL/min, estimated dead time 0.73 min; A: water + 0.1% formic acid; B: methanol + 0.1% formic acid + 4 mM ammonium formate; gradient (min/%B) 0/0 1/0 8/100 10/100
conditionInfo: stereoisomer not certain
// assign yes (1) if LC retention time falls strictly below 6 min, else no (0) (ties count as no (0))

| compound | labelValue |
| --- | --- |
| COc1cc2c(c3oc(=O)c4c(c13)CCC4=O)C1(O)C=COC1O2 (configuration not stated) | yes (1) |
| CC1CCCC(=O)CCCCCc2cc(O)cc(O)c2C(=O)O1 (configuration not stated) | no (0) |
| CC1CCCC(=O)CCCC=Cc2cc(O)cc(O)c2C(=O)O1 (configuration not stated) | no (0) |
| COc1cc2c(c3oc(=O)c4c(c13)CCOC4=O)C1CCOC1O2 (configuration not stated) | yes (1) |
| CC(C)C1(NC(=O)C2CC3c4cccc5[nH]cc(c45)CC3N(C)C2)OC2(O)C3CCCN3C(=O)C(Cc3ccccc3)N2C1=O (configuration not stated) | no (0) |
| COc1cc(=O)oc(C=CC=CC=CC(C)=CC2(C)OC(C)C(C)(O)C2O)c1C (configuration not stated) | no (0) |
| CC1=CC2c3cccc4[nH]cc(c34)CC2N(C)C1 (configuration not stated) | yes (1) |
